# TARGET_DESC: Human ROCK1 protein (amino acids 1–477) (Homo sapiens)
# Construct: purchased Carna Biosciences 01-109
# Sequence (Q13464 1-477): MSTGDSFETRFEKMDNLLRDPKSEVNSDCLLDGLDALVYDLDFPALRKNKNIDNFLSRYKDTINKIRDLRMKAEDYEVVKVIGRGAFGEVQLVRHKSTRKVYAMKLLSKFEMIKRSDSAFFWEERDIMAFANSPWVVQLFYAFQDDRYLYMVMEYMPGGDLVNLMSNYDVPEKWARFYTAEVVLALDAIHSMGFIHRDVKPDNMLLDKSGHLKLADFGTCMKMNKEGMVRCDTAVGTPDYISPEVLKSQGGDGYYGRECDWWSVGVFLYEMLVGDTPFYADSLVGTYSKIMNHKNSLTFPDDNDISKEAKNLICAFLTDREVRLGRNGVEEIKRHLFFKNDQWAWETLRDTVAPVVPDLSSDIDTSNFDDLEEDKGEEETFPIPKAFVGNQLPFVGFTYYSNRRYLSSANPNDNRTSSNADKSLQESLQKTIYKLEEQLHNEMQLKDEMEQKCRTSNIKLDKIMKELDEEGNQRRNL
# MEASUREMENT_PROTOCOL: ROCK1 HTRF KinEASE-STK S2 biochemical activity assay
# CONDITION_SET: 2021-01-17 ROCK1 HTRF (n=1) 665/620 Activity [%]; curve fit parameter
PROPERTY_LABEL: S0 (%)
Numbers only, in %.

Some compounds with known S0 results, for comparison:
CSc1cccc(F)c1CNC(=O)c1ccc(-c2cn[nH]c2)cc1 [Compound 5] ... 3.131
O=C(NCC1(Cc2ccccc2)CC1)c1ccc(-c2cn[nH]c2)cc1 [Compound 4] ... -5.337
CC(CNC(=O)c1ccc(-c2cn[nH]c2)cc1)N1CCc2ccccc21 (stereo not drawn) [Compound 2] ... -2.075

Working through the 3 compounds below one at a time, give S0 for each.
1. COCc1cccc(CC(=O)Nc2ccc(-c3cn[nH]c3)cc2)c1 [Compound 1]
2. CC(NC(=O)c1ccc(-c2cn[nH]c2)cc1)C1CC1c1ccccc1 (mixture of isomers) [Compound 6]
3. CC(Cc1ccc(F)cc1F)NC(=O)c1ccc(-c2cn[nH]c2)cc1 (racemic) [Compound 3]

Result ::
-0.5714
0.4458
1.865

Reference source: paper PMC9616902
